Reported Vd by item:
PROTOCOL: Volume of distribution at steady state in Beagle dog at 1 or 4 umol/kg, iv or 10 umol/kg, po
Format: ADME, organism-based, Canis lupus familiaris
STUDY CONDITIONS: in vivo, read-out: Vdss
Could you write the number and then its unit?

{"SMILES DATA": "Cc1nn(C2CCN(C(=O)[C@@H](C)O)CC2)c(C)c1Nc1ncc(Cl)c(-c2cnn3ccccc23)n1", "Vd": "1.3 L/kg"}
{"SMILES DATA": "Cc1nn(C2CCN(C(=O)CO)CC2)c(C)c1Nc1ncc(Cl)c(-c2cnn3ccccc23)n1", "Vd": "1.6 L/kg"}

Let us examine a further case.
// query Can you share its Vd? I mean this molecule: CC(=O)N1CCC(n2ncc(Nc3ncc(Cl)c(-c4cnn5ccccc45)n3)c2C)CC1
// result 0.7 L/kg

---

Each item that follows carries a reported log10(solubility thermodynamic at 24 h).
PROTOCOL: Thermodynamic solubility of the compound in aqueous phosphate buffer at pH 7.4 at 25 degC after 24 hrs by LC-UV method
Format: physicochemical
STUDY CONDITIONS: read-out: Therm_solubility
Note the log scale: values are log10 of solubility thermodynamic at 24 h expressed in µM.

// query Need log10(solubility thermodynamic at 24 h) of CC(=O)N1CCC(n2nc(C)c(Nc3ncc(Cl)c(-c4cnn5ccccc45)n3)c2C)CC1 , thanks.
// result 0.60

// query Tell me the measured log10(solubility thermodynamic at 24 h) of Cc1nn(C2CCN(C(=O)CO)CC2)c(C)c1Nc1ncc(Cl)c(-c2cnn3ccccc23)n1 , please.
// result 0.30

// query Query (compound): Cc1nn(C2CCN(C(=O)[C@@H](C)O)CC2)c(C)c1Nc1ncc(Cl)c(-c2cnn3ccccc23)n1 ; field requested: log10(solubility thermodynamic at 24 h)
// result 1.23

// query Which measured log10(solubility thermodynamic at 24 h) value corresponds to Cc1nn(C2CCN(C(=O)CN)CC2)c(C)c1Nc1ncc(Cl)c(-c2cnn3ccccc23)n1 ?
// result 2.41

// query Fill in the blank: the reported log10(solubility thermodynamic at 24 h) of COCC(=O)N1CCC(n2nc(C)c(Nc3ncc(Cl)c(-c4cnn5ccccc45)n3)c2C)CC1 is ____.
// result 1.49

// query Given the compound CC(=O)N1CCC(n2cc(Nc3ncc(Cl)c(-c4cnn5ccccc45)n3)c(C)n2)CC1 , what is its reported log10(solubility thermodynamic at 24 h)?
// result 0.95

---

PROTOCOL: Intrinsic clearance in rat hepatocytes assessed per 10^6 cells
Assay type: ADME, cell-based, Hepatocyte
STUDY CONDITIONS: read-out: CLH
Classification field: enter Yes for hepatocyte CLint values not below 20 µL/min/1e6 cells, No for values below it.

{"SMILES DATA": "Cc1nn(C2CCN(C(=O)[C@@H](C)O)CC2)c(C)c1Nc1ncc(Cl)c(-c2cnn3ccccc23)n1", "LABEL VALUE": "Yes"}

// query hepatocyte CLint >= 20 µL/min/1e6 cells for CC(=O)N1CCC(n2cc(Nc3ncc(Cl)c(-c4cnn5ccccc45)n3)c(C)n2)CC1 ?
// result Yes

// query I'd appreciate it if you could say whether Cc1nn(C2CCN(C(=O)CO)CC2)c(C)c1Nc1ncc(Cl)c(-c2cnn3ccccc23)n1 has hepatocyte CLint at least equal to 20 µL/min/1e6 cells.
// result No

// query Can CC(=O)N1CCC(n2nc(C)c(Nc3ncc(Cl)c(-c4cnn5ccccc45)n3)c2C)CC1 be said to have hepatocyte CLint at or above 20 µL/min/1e6 cells?
// result Yes

// query Would you say CC(=O)N1CCC(n2ncc(Nc3ncc(Cl)c(-c4cnn5ccccc45)n3)c2C)CC1 shows hepatocyte CLint at minimum 20 µL/min/1e6 cells?
// result Yes
